Tested on: A549
TEST_PROTOCOL: NCI tumour cell line growth inhibition, 48 h
Activity calls are given as the source filed them. Rule as the data show it: active = GI50 up to about 1.1 µM and inactive = higher.
The molecules listed here are annotated with their GI50.

MOLECULE: Cc1cc2c([nH]c3ccccc32)c(O)c1-c1c(C)cc2c([nH]c3ccccc32)c1O
REPORTED_RESULT: 12.1 µM (inactive)
--
MOLECULE: COc1cc2c(c(OC)c1OC)CCNC2C1=C(O)COC1=O (stereo not given)
REPORTED_RESULT: > 100 µM (inactive)
--
MOLECULE: CN1C(=O)C(C#N)C2C[C@@]1(C)Oc1ccccc12 (stereo not given in full)
REPORTED_RESULT: > 100 µM (inactive)
--
MOLECULE: CC1(C)OC[C@H](C(=N)OCc2ccccc2)O1
REPORTED_RESULT: > 100 µM (inactive)

**Q:** What measured GI50 goes with Cc1cccc2c(NCCCN(C)C)c3c([N+](=O)[O-])ccc(C)c3nc12 ?
**A:** 0.101 µM (active)

**Q:** What measured GI50 goes with CCCC1(CCC)c2cc(/C=N\O)ccc2-c2ccc(-c3ccc(C(C)(C)C)cc3)cc21 ?
**A:** 53.7 µM (inactive)

**Q:** What measured GI50 goes with c1cnc2c3[nH]cc4[nH]c5ccccc5c4c-3nc2c1 ?
**A:** > 100 µM (inactive)

**Q:** What measured GI50 goes with COc1ccc(C(SC2C(O)C(CO)OC2n2ccc(=O)[nH]c2=O)(c2ccccc2)c2ccc(OC)cc2)cc1 (stereo not given) ?
**A:** 16.4 µM (inactive)

**Q:** What measured GI50 goes with COC(=O)C1C(C(=O)OC)C2(OC(c3ccc(Cl)cc3)=CC2=O)C12OC(c1ccc(Cl)cc1)=CC2=O (stereo not given) ?
**A:** 34.1 µM (inactive)

**Q:** What measured GI50 goes with Cn1cc2ccccc2c1-c1nc(F)nc(Oc2ccc3c(c2)CC[C@@H]2C3CC[C@@]3(C)C2CC[C@@H]3O)n1 (stereo not given in full) ?
**A:** 24.8 µM (inactive)

---

Tested on: KM12
TEST_PROTOCOL: NCI tumour cell line growth inhibition, 48 h
The source made the active and inactive calls. Cut-off read from the data, not from the text of the source: active = GI50 up to about 1.1 µM and inactive = higher.
Thanks in advance; please answer with one of these: y for active, n for inactive

COMPOUND: O=[N+]([O-])c1ccc(C2=Nc3ccccc3[S+]([O-])C(c3ccccc3)C2)cc1 (stereo not drawn)
GROUP: n
--
COMPOUND: COc1ccc(CN=C(N)N)c2ccccc12
GROUP: n
--
COMPOUND: Cc1nn(-c2ccccc2)c2nc3c(c(C)nn3-c3ccccc3)c(-c3ccc(C(F)(F)F)cc3)c12
GROUP: n
--
COMPOUND: COc1ccc2c(C)cc(=O)oc2c1OC
GROUP: n
--
COMPOUND: Cc1[nH]c2ccccc2c1/C=C/c1c(C)[nH]c2ccccc12
GROUP: n

**Q:** GET /call?item= O=C(Cc1nc2ccccc2s1)Nc1cccc(C(F)(F)F)c1 returns the recorded outcome of this test.
**A:** n

**Q:** GET /call?item= c1ccncc1 returns the recorded outcome of this test.
**A:** n

**Q:** GET /call?item= COC(=O)c1c2c(cc3c1CC1(Cc4ccccc4C1)C3)CCC2 returns the recorded outcome of this test.
**A:** n

---

Tested on: OVCAR-4
TEST_PROTOCOL: NCI tumour cell line growth inhibition, 48 h
Activity calls are given as the source filed them. Rule as the data show it: active = GI50 up to about 1.1 µM and inactive = higher.
PROPERTY_MEASURED: GI50

COMPOUND: NNC(=O)CCCCCCCC(=O)O
REPORTED_RESULT: > 100 µM (inactive)
//
COMPOUND: CC(C)(C)c1cc(C(=O)/C=C/c2ccc3c(c2)OCO3)cc(C(C)(C)C)c1O
REPORTED_RESULT: 6.95 µM (inactive)
//
COMPOUND: N#C/C(=C\c1ccc(Cl)cc1)c1nc2ccccc2c(=O)[nH]1
REPORTED_RESULT: > 100 µM (inactive)
//
COMPOUND: COC(=O)/C=C(\S/C(=N\n1cc(C(=O)OC)c(C(=O)OC)c1-c1ccc(C)cc1)c1ccc(C)cc1)C(=O)OC
REPORTED_RESULT: 1.58 µM (inactive)
//
COMPOUND: COc1cccc(-c2nc(-c3cnccn3)n(C/C=C/c3ccccc3)n2)c1
REPORTED_RESULT: > 10 µM (inactive)

**Q:** What measured GI50 goes with Cc1cc(Cl)ccc1NC(=O)C(=O)Cc1nc2ccccc2o1 ?
**A:** > 100 µM (inactive)

**Q:** What measured GI50 goes with CC(=O)c1ccc(NC(=O)/C(Cc2ccccn2)=N/NC(=O)C[N+](C)(C)C)cc1 ?
**A:** > 100 µM (inactive)

**Q:** What measured GI50 goes with CC(C)C(C)C(O)C(O)C(C)C1CCC2C3COC(=O)C4CC(O)C(O)CC4(C)C3CCC12C (stereo not given) ?
**A:** 59 µM (inactive)

**Q:** What measured GI50 goes with O/N=C/c1ccc(O)c(O)c1 ?
**A:** 77.3 µM (inactive)

**Q:** What measured GI50 goes with C=C(C)[C@@H]1CC[C@]2(C(=O)O)CC[C@]3(C)[C@H](CC[C@@H]4[C@@]5(C)CC[C@H](O)C(C)(C)[C@@H]5CC[C@]43C)[C@@H]12 ?
**A:** 5.83 µM (inactive)

---

Test system: KM12
TEST_PROTOCOL: NCI tumour cell line growth inhibition, 48 h
Activity calls are given as the source filed them. Cut-off read from the data, not from the text of the source: active = GI50 up to about 1.1 µM and inactive = higher.
Thanks in advance; please answer with one of these: active, inactive

Worked set:
COMPOUND: Cc1ccc(S(=O)(=O)N/N=C/C(C)C)cc1
GROUP: inactive
--
COMPOUND: O/N=C/c1ccc(O)c(O)c1
GROUP: inactive
--
COMPOUND: CCOC(=O)c1sc2c(C(=O)OCC)n3ccccc3c2c1N
GROUP: inactive
--
COMPOUND: CCOC(=O)CCCNC(=O)CCCCC(=O)N(C)C
GROUP: inactive
--
COMPOUND: C#CCNC(CCCNC(=N)N)C(=O)O (configuration not stated)
GROUP: inactive

**Q:** GET /call?item= CCOC(=O)C(C)(C)/C=C\C(Cl)=C(Cl)Cl returns the recorded outcome of this test.
**A:** inactive

**Q:** GET /call?item= O=c1c2cc([N+](=O)[O-])ccc2oc2nc3n(c(=O)c12)CCCS3 returns the recorded outcome of this test.
**A:** inactive

**Q:** GET /call?item= CC1(C)OC[C@H](C(=N)OCc2ccccc2)O1 returns the recorded outcome of this test.
**A:** inactive

**Q:** GET /call?item= Clc1ccc(Cc2nc3ccccc3s2)c(Cl)c1 returns the recorded outcome of this test.
**A:** inactive

---

System: HL-60
TEST_PROTOCOL: NCI tumour cell line growth inhibition, 48 h
Activity calls are given as the source filed them. Cut-off read from the data, not from the text of the source: active = GI50 up to about 1.1 µM and inactive = higher.
PROPERTY_MEASURED: GI50

Solved cases (2 shown):
COMPOUND: COc1cc(C(=O)OCCn2[nH]c(-c3ccc(Cl)cc3)nc2=S)cc(OC)c1OC
REPORTED_RESULT: 38.9 µM (inactive)
--
COMPOUND: Cc1cc2sc(C)[n+](CCCOS(=O)(=O)[O-])c2cc1C
REPORTED_RESULT: > 100 µM (inactive)

**Q:** What measured GI50 goes with O=C(/C=C/c1ccc(Oc2cc(C(=O)/C=C/c3ccc(O)cc3)c(O)cc2O)cc1)c1ccc(O)cc1O [RHUSCHALCONE II] ?
**A:** 4.14 µM (inactive)

**Q:** What measured GI50 goes with Cc1ccc2sc3cc(=O)cc(C)c-3nc2c1 ?
**A:** 13.8 µM (inactive)

**Q:** What measured GI50 goes with COC(=O)c1cnn2c1n[n+]([O-])c1ccccc12 ?
**A:** 68.5 µM (inactive)

**Q:** What measured GI50 goes with CN(C)/C=N\c1nc(=O)n(C2CCC(CO)O2)cc1F (stereo not given) ?
**A:** > 100 µM (inactive)

**Q:** What measured GI50 goes with COc1cc(NCc2ccc3nc(-c4ccccc4)c(N)nc3c2)cc(OC)c1OC ?
**A:** 25.6 µM (inactive)

**Q:** What measured GI50 goes with O=C(NCCNCCNCCNC(=O)c1cc(-c2ccccc2)nc2ccccc12)c1cc(-c2ccccc2)nc2ccccc12 ?
**A:** 1.74 µM (inactive)

---

Test system: UO-31
TEST_PROTOCOL: NCI tumour cell line growth inhibition, 48 h
The source made the active and inactive calls. Rule as the data show it: active = GI50 up to about 1.1 µM and inactive = higher.
Thanks in advance; please answer with one of these: 1 (yes) (active), 0 (no) (inactive)

COMPOUND: CCN1/C(=C/C(C)=C/c2sc3ccccc3[n+]2CC)Sc2ccccc21
GROUP: 1 (yes)
//
COMPOUND: Cc1[nH]c(-c2ccccc2)c2nc(N(C)C)oc(=O)c12
GROUP: 0 (no)
//
COMPOUND: CCOC(=O)C(=O)Nc1nc2c(s1)C(=O)c1ccccc1C2=O
GROUP: 0 (no)
//
COMPOUND: O=Cc1ccc2c(c1I)OCO2
GROUP: 0 (no)
//
COMPOUND: CCOC(=O)C(C)Sc1nnc(COc2ccc(Cl)cc2)n1-c1ccccc1 (centres undefined)
GROUP: 0 (no)

We next turn to a different compound, shown below.
**Q:** GET /call?item= CC1S/C(=N/c2nnc(-c3ccccc3)o2)NC1=O (centres undefined) returns the recorded outcome of this test.
**A:** 0 (no)
